Molecular target: T1, RapF^E303A (B. subtilis, UniProt P71002 1-381, E303A)
T1 construct: RapF of Bacillus subtilis with Glu303 changed to Ala, made from pPROEX-RapF by site-directed mutagenesis; Same construct as m1 with the point mutation; also called RapF Glu303Ala; source: E. coli BL21 RIL, purified as native RapF; not shown: His6, N-terminal, cleaved
T1 sequence: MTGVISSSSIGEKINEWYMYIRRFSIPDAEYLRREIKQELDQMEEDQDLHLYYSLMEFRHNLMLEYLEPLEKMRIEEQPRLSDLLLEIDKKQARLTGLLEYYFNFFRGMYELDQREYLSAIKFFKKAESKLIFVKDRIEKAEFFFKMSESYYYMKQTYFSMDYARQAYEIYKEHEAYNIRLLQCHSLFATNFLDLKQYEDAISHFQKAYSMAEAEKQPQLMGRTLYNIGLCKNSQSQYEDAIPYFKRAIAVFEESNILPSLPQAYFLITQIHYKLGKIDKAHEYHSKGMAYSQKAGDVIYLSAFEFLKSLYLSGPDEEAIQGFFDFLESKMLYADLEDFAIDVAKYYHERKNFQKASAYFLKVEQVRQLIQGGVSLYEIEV
Experiment: native gel or EMSA; titration on 8% native gel; 20 µg protein, peptide 50 nM to 1.2 mM in 20 µl buffer A, 15 min at room temperature; midpoint of the transition taken as the apparent Kd
Settings: both partners purified
pKd: −log10 of the molar value.

{"BINDER": "QRGMI (mature active form of the PhrF precursor; The purchase from Genescript is stated for the crystallisation; no other source is named; also called PhrF peptide; source: bought: Genescript) [PhrF]", "pKd": 4.54}
